biological target: VEGFR2 (Homo sapiens); assay: biochemical inhibition of VEGF-R2; settings: FIG. 20
Sequence (P35968 20-1356, species assumed): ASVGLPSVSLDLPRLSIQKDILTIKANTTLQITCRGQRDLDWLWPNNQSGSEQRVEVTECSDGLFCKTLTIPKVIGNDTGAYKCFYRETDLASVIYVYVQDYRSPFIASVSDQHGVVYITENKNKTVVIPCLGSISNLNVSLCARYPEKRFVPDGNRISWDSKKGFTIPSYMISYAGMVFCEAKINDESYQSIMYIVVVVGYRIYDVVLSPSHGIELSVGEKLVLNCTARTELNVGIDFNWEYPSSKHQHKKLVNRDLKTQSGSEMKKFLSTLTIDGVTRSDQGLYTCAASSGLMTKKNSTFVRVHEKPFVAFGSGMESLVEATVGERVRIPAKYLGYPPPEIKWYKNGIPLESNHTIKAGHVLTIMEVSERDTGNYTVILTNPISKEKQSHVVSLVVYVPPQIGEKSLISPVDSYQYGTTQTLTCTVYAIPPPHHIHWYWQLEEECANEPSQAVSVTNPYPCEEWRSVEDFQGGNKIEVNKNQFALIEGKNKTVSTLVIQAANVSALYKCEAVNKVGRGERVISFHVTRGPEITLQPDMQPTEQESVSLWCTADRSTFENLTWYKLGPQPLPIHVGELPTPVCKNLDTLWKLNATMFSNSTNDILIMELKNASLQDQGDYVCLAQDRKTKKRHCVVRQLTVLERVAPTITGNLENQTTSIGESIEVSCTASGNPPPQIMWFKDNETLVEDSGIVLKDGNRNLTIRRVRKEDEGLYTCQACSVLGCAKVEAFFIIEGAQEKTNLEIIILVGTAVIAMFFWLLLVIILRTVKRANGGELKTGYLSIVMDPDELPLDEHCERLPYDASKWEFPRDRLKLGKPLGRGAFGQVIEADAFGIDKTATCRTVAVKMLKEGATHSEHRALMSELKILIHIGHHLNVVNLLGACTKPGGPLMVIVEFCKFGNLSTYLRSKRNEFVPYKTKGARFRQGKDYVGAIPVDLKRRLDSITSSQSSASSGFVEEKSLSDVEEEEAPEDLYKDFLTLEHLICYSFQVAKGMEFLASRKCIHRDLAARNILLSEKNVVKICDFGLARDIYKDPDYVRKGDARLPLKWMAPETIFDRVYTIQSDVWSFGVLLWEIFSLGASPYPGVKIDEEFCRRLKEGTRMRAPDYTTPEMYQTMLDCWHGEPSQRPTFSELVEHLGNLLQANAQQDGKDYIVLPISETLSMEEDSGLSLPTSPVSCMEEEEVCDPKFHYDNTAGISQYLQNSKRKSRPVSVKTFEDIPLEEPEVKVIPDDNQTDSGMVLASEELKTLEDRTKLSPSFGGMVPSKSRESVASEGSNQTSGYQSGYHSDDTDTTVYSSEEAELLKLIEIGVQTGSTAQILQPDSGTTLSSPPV
experimentalReadout: pIC50
Note on units: pIC50 is unitless, being -log10 of a concentration expressed in mol/L.

Enquiry: Find the recorded pIC50 belonging to C[C@H]1C/C=C(/F)C(=O)[C@@H](O)[C@@H](O)C/C=C/c2cc(O)cc(O)c2C(=O)O1 and report it.
Return: 8.17

Enquiry: Find the recorded pIC50 belonging to C[C@H]1C/C=C(/F)C(=O)[C@@H](O)[C@@H](O)CCOc2cc(O)cc(O)c2C(=O)O1 and report it.
Return: 7.22
